Experiment: Solubility of the compound in buffer at pH 6.5
Format: physicochemical
MEASUREMENT KIND: solubility (µg/mL)
// return numeric value only (unit: µg/mL, not printed)

Example results:
C[C@@H](c1ccc(Cl)c(Cl)c1)n1ncc2nc(-n3cc(C(=O)O)cn3)[nH]c(=O)c21 75
O=C(O)c1cnn(-c2nc3cnn(Cc4ccc(-c5ccc(F)cc5)c(F)c4)c3c(=O)[nH]2)c1 49
O=C(O)c1cnn(-c2nc3cnn(Cc4ccc(-c5ccccc5)cc4)c3c(=O)[nH]2)c1 9.5

Now for a further molecule.
Which solubility reading was recorded for the molecule "O=C(O)c1cnn(-c2nc3cnn(Cc4ccc(Cl)c(Cl)c4)c3c(=O)[nH]2)c1" ?
88
